assay: label from the status in PepcDB records
observation.type: protein production

Query: Tell me its protein production given MKKLLLSLTLTVLLGLLGRPAIAANYEIKLVDEGVFAAIALPEGKAASNALIIITPHQVILAGAHFVPEGIKELIADIAEITPLPLRSVILTHHHKGFNYVDFDFPANVEIITSWQTWQALKAETRPLRNPVTFFEKGLTLLRSNTTIVLSSADFGHTEGDVFLFLPNEGILFASDLFYNDVVGYMGEGHMRDWVITLETLEAVGAQYVVPGLGQVTDRSGLRRFRLFFKDFLTEVLRHMEAGKTLAETKKLFRLPAHEGMPGYKAFLDVNLDRAYQDLRDQ as the entry.
Reply: failed

Query: Tell me its protein production given MTEVSFFLSDNNWYFVVVINNKDFCMKCHRLNEVMELLHPVWEENSDLNLVQLLQKLADEAGFKGQLSDLTDDILIYHLKMRGSAPTEVIPGLKKDYEEDFKTAILRARGVIKD as the entry.
Reply: failed

* * *

test: label from the status in PepcDB records
observation.type: protein production

Query: Tell me its protein production given MNTSNRRMGLFYVITGATCWGIGGTVAKKLFQEYQIDVNWLVTTRLLTAGMLLLMLQLFRKDRSQVIEVWKHKASAGQLLIFGLLGMLAVQYTYMASIQHGNAAVATLLQYLSPVIVIIYTLLRKQTVLTKQDIITVVLALVGCFFLLTNGSMSQLSVPAAAVVWGVLSGFAAAFYTLYAVGLLNKFDSLVVVGWAMIIGGFALGFIHPPWQLDFQRLTAEAYAYILFVILFGTMIAFWFFIKSLESLSPKETSLLGSLEPLSAVVTTVVWLKAPFGSFQWIGAICIIGITLILALHKEPSMESEKSILKIRNHANRDI as the entry.
Reply: failed

Query: Tell me its protein production given MLKLFAKYTSIGVLNTLIHWVVFGVCIYVAHTNQALANFAGFVVAVSFSFFANAKFTFKASTTTMRYMLYVGFMGTLSATVGWAADRCALPPMITLVTFSAISLVCGFVYSKFIVFRDAK as the entry.
Reply: failed

* * *

test: label from the status in PepcDB records
observation.type: protein production

Query: Tell me its protein production given MDVEAWLDERVPLVETHHHHHHENLYFQSHMNHGANIFGVAFNTLLGKDEPQVFATAGSNRVTVYECPRQGGMQLLHCYADPDPDEVFYTCAWSYDLKTSSPLLAAAGYRGVIRVIDVEQNEAVGNYIGHGQAINELKFHPHKLQLLLSGSKDHAIRLWNIQSHVCIAILGGVEGHRDEVLSIDFNMRGDRIVSSGMDHSLKLWCLNTPEFHHKIELSNTFSQEKSTLPFPTVTKHFPDFSTRDIHRNYVDCVQWFGNFVLSKSCENAIVCWKPGQLHQSFEQVKPSDSSCTIIAEFEYDECEIWFVRFGFNPWQKVIALGNQQGKVYVWELDPSDPEGAHMTTLHNSRSVATVRQIAFSRDASVLVYVCDDATVWRWNRRQTTSI as the entry.
Reply: failed

Query: Tell me its protein production given MEDQCIISHLAGIFSGVLATDFLRYAVGAGGVYLTVNLALAARLRARKIRAYEPPKGQIGREILASLRTVLIFALNGTLIVVGAEAGLVPIYREIATHGWAYLFFSTTVLIVAHDTWFYWSHRLLHYPPIFRRFHRLHHKSHNPTPFTSYSFDLGEAVVNAIYLPLILLVLPAHPVAILVFVTHMMLRNAIGHSGYEIFPANRRGKPLFDWITTVTHHDLHHAHAGYNLGLYFTWWDRLMGTEHPDYHEAFQKVAKPASWPSVRAVILAFAIFTGIAVSDARAERLSGAYASPGFGVIVRFEPCNANPGLTCGRMIWAWDAAEVPHAQSGDVIVIDLHGDGNVWSGRLKNPENGRMYRGSVVQRSPDTIVLRGCAGPFCTSQIWHSVRALRRALESAE as the entry.
Reply: failed

Query: Tell me its protein production given MASKMDTETHYSDVWVVIPAFNEAAVIGKVVTDVRSVFDHVVCVDDGSTDGTGDIARRSGAHLVRHPINLGQGAAIQTGIEYARKQPGAQVFATFDGDGQHRVKDVAAMVDRLGAGDVDVVIGTRFGRPVGKASASRPPLMKRIVLQTGARLSRRGRRLGLTDTNNGLRVFNKTVADGLNITMSGMSHATEFIMLIAENHWRVAEEPVEVLYTEYSKSKGQPLLNGVNIIFDGFLRGRMPR as the entry.
Reply: failed
